Test system: Reo-virus-1
ASSAY_COMMENT: Antiviral CPE assay, Reovirus-1 in Vero cells
Format: cell-based
REPORTED_CONDITIONS: Vero
MEASURE_NAME: EC50

compound="OCc1cn(C2CC(O)C(CO)C3CC32)nn1 (stereo not drawn)" endpoint_result="> 50 µg/mL"
compound="Cc1cn(C2CC=C(CO)C3CC32)c(=O)[nH]c1=O (stereo not drawn)" endpoint_result="> 50 µg/mL"

I have this compound here, COc1c(C)c2c(c(O)c1C/C=C(\C)CCC(=O)O)C(=O)OC2 [Mycophenolic acid, reference compound] , and I need its recorded EC50.
7.1 µM

###

Tested on: Herpes simplex virus-2 (G)
ASSAY_COMMENT: microbe, parasite or virus in culture
Format: cell-based
REPORTED_CONDITIONS: Human alphaherpesvirus 2, HEL, read-out: Antiviral EC50 Herpes simplex virus-2 (G)
MEASURE_NAME: EC50

Here is how some compounds turned out for EC50.
compound="Nc1ccn(C[C@@H](CO)OCP(=O)(O)O)c(=O)n1 [Cidofovir, reference compound]" tested_target="Herpes simplex virus-2 (G)" endpoint_result="7.5 µM"
compound="OCc1cn(C2CC(O)C(CO)C3CC32)nn1 (centres unmarked)" tested_target="Herpes simplex virus-2 (G)" endpoint_result="> 50 µg/mL"
compound="OCC1C(O)CC(n2cc(-c3ccccc3)nn2)C2CC12 (centres unmarked)" tested_target="Herpes simplex virus-2 (G)" endpoint_result="> 50 µg/mL"

Could you report EC50 for every entry in the following list?
1. NC(=O)c1cn(C2CC(O)C(CO)C3CC32)nn1 (centres unmarked)
2. Cc1cn(C2CC(O)C(CO)C3CC32)c(=O)[nH]c1=O (centres unmarked)
3. Nc1nc(O)c2ncn(COC(CO)CO)c2n1 [Ganciclovir, reference compound]
4. NC(=O)c1nnn(C2CC(O)C(CO)C3CC32)c1N (centres unmarked)

["> 50 µg/mL", "> 50 µg/mL", "0.09 µM", "> 50 µg/mL"]

###

Tested on: Human Coronavirus (229E)
ASSAY_COMMENT: microbe, parasite or virus in culture
Format: cell-based
REPORTED_CONDITIONS: Human coronavirus 229E, HEL, read-out: Antiviral EC50 Human Coronavirus (229E)
Provide the recorded EC50 for the entries that follow.

Solved entries:
compound="NC(=O)c1cn(C2CC(O)C(CO)C3CC32)nn1 (stereo not shown) [Compound 3a]" tested_target="Human Coronavirus (229E)" endpoint_result="> 50 µg/mL"
compound="OCC1C(O)CC(n2cc(-c3ccccc3)nn2)C2CC12 (stereo not shown) [Compound 3c]" tested_target="Human Coronavirus (229E)" endpoint_result="> 50 µg/mL"
compound="Cc1cn(C2CC=C(CO)C3CC32)c(=O)[nH]c1=O (stereo not shown) [Compound 19]" tested_target="Human Coronavirus (229E)" endpoint_result="> 50 µg/mL"
compound="OCc1cn(C2CC(O)C(CO)C3CC32)nn1 (stereo not shown) [Compound 3e]" tested_target="Human Coronavirus (229E)" endpoint_result="> 50 µg/mL"
compound="NC(=O)c1nnn(C2CC(O)C(CO)C3CC32)c1N (stereo not shown) [Compound 3b]" tested_target="Human Coronavirus (229E)" endpoint_result="> 50 µg/mL"

Provide EC50 for all items below, preserving their order.
1. Cc1cn(C2CC(O)C(CO)C3CC32)c(=O)[nH]c1=O (stereo not shown) [Compound 1a]
2. Nc1nc2c(ncn2C2CC(O)C(CO)C3CC32)c(=O)[nH]1 (stereo not shown) [Compound 1b]

> 50 µg/mL
> 50 µg/mL
